# System: BHK-21 cells
# Experiment: MTT assay for Maximum Non-Toxic Dose
# Assay type: cell-based
Reported Metric: Maximal non-toxic dose (MNTD)
I'd appreciate it if you included the unit after the number.

Qu. Give the measured Maximal non-toxic dose (MNTD) of `O=c1oc2ccccc2c(Nc2ccccc2)c1I` .
Ans. 1 µg/mL

Qu. Look up Maximal non-toxic dose (MNTD) for this compound: `O=c1oc2ccccc2c(N(c2ccccc2)c2ccccc2)c1I`
Ans. 0.1 µg/mL

Qu. // query Maximal non-toxic dose (MNTD) value for entry `O=c1cc(Nc2ccccc2)c2ccccc2o1`
Ans. 0.1 µg/mL

Qu. Sample `Nc1cc(=O)oc2ccccc12` — what was its Maximal non-toxic dose (MNTD)?
Ans. 2.5 µg/mL

Source of measurements: paper PMC12218390
